molecular target: Cytochrome P450 3A4 (Homo sapiens) (UniProt P08684); test: Cytochrome panel assay with activity outcomes; conditions: recombinant CYP, pro-luciferin dealkylation, luminescence, p450-cyp3a4; series mostly up to 57.1 µM
Sequence (P08684 whole entry, looked up): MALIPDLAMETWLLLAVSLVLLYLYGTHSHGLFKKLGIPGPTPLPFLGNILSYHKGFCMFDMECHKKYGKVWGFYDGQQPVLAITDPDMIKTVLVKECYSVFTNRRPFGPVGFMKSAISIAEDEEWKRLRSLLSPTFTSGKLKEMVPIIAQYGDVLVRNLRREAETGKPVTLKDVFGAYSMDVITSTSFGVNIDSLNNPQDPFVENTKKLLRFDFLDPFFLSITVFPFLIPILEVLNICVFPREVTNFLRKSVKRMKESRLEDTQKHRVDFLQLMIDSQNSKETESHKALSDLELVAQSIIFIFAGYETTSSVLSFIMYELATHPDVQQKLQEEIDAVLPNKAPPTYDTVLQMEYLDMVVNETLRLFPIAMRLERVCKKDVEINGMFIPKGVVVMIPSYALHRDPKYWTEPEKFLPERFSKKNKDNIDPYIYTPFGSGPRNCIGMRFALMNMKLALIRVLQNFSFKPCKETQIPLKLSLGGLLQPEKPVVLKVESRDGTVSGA
Screen size: about 16,000 compounds; about 5,100 (32%) were called active. Another 25% or so got no clear call; they are omitted. Calls come from the whole dose curve; as a rule, active = well fitted curve in the direction sought with a large enough effect; inconclusive = small, poorly fitted or top-dose-only effect, or effect the other way; inactive = no such curve, though single readings can be large or run the other way. This is one part of the list.
Your answer must be one of the following: y = active, n = inactive

CCOC(=O)C1=C(C)NC2(O)c3ccccc3C(=O)C12O (stereo unspecified)    n
CO/N=C\c1ccc(C(=O)N2[C@H](c3ccc(C)cc3)[C@@H](C)CC[C@H]2C(=O)OC)cc1    y

What outcome does the record of this test show for `CCOC(=O)c1[nH]c(C)c(C)c1C` ?
n

What outcome does the record of this test show for `COCCn1c(=O)c(-c2cccc(C#N)c2)nc2cnc(N3CCNCC3)nc21` ?
y

What outcome does the record of this test show for `O=c1c(-c2cccs2)nc2cnc(N3CCNCC3)nc2n1Cc1cccs1` ?
y

What outcome does the record of this test show for `CO[C@]1(C2=NCCN2)COc2ccccc2O1` ?
n

What outcome does the record of this test show for `COC(=O)[C@@H]1CC[C@H](C)[C@@H](c2ccc(C)cc2)N1C(=O)c1ccc(/C=N\OC[C@@H](C)[C@H](OCc2ccccc2)C(C)C)cc1` ?
y

What outcome does the record of this test show for `S=C(NCCSCc1c(Cl)cccc1Cl)Nc1ccccc1` ?
y

What outcome does the record of this test show for `CCOC(=O)c1cc2c(=O)n3ccccc3nc2n(CCCOC)c1=NC(C)=O` ?
n

What outcome does the record of this test show for `Cc1nc2cnc(N3CCNCC3)nc2n(Cc2cccs2)c1=O` ?
y

What outcome does the record of this test show for Cc1cccc(C)c1OC1(c2ccccc2)OC(=O)c2ccccc21 (stereo unspecified) ?
y
